# assay-explanation: Specific activity of purified CHI, absorbance decrease at 384 nm, eriodictyol chalcone; note: unit not given here
# Assay type: biochemical
# measurement-parameters: purified CHI in 50 mM PBS, 100 μM substrate, 25° C.
Specific activity, Eriodictyol chalcone: recorded values
Note: the reply should be a number with no unit written.

Any idea what its Specific activity, Eriodictyol chalcone is? The molecule is CHI11: Chalcone isomerase from Eubacterium sp., access no. SCK02381.1 (protein, Eubacterium sp) TKNMLGFEPMRSLIYVDVAKEDYRVKLENWLYKYHIPDSISQFGPYVSKYAFYQALPVPEGGERFGAIKMQLTEHYWLANPNNIAQFDHHKALTEYFPPDVLKWQGNLPDEDFQCENVEGDEARAVKGDASKGTVPFIFAFVPVWWEEDYKGAGRTIEDGPNYRWQMVIKFPDDAKDTGDKWLRDEFIPAFVECEETTRILSSKVIKEANGCEFDRVVEMWFEGPSAWKAAVGKAAKKVRRPAWFETEDFPYLTQSYGISSIFLSDIARSDNMTQYNGYVTMR 10.8

Any idea what its Specific activity, Eriodictyol chalcone is? The molecule is CHIera: Chalcone isomerase from Eubacterium ramulus (protein, listed as Eubacterium ramulus) ADFKFEPMRSLIYVDCVSEDYRPKLQRWIYKVHIPDSISQFEPYVTKYAFYPSFPIPPQGDRFGYARMQLTEHHWLVSDLDPRLEIKAIAETFPMDVLVWQGQIPAAAHTDAQIDSDGDAGNAARKSNNAEGNPFIFAFLPMWWEKDLKGKGRTIEDGANYRFNMTIGFPEGVDKAEGEKWLFEKVVPILQAAPECTRVLASAVKKDINGCVMDWVLEIWFENQSGWYKVMVDDMKALEKPSWAQQDAFPFLKPYHNVCSAAVADYTPSNNLANYRGYITMR 90.7

meta.source: patent US20240150797A1
